methodDescription: chemical genetic growth profiling, strain panel (AID 1159580);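 also: tested at 20 µM; growth read once vehicle control cultures reached saturation at 30 °C; 1 = growth at the plate median or of vehicle wells; lower values mean less growth of the strain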
experimentalContext: S. cerevisiae deletion strains, growth OD, locus YJL187C, strain SWE1 (second series), stronger effect = lower value
The campaign covered roughly 5,500 compounds. About 2,000 (36%) were called active. About 18% were inconclusive and are not listed. The list shows a part of the results.
Consider the cut-off 1. If the recorded normalized growth is strictly smaller, the label is YES; if not, the label is NO.

| structureSmilesString | class |
| --- | --- |
| Oc1ccc(Cl)c2cccnc12 | YES |
| c1ccc2c(c1)cc1ccc3cccc4ccc2c1c34 | NO |
| C[n+]1cccc(C(=O)[O-])c1 | NO |

====

Entries annotated with measured normalized growth
methodDescription: chemical genetic growth profiling, strain panel (AID 1159580);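 also: tested at 20 µM; growth read once vehicle control cultures reached saturation at 30 °C; 1 = growth at the plate median or of vehicle wells; lower values mean less growth of the strain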
experimentalContext: S. cerevisiae deletion strains, growth OD, locus YLR371W, strain rom2, stronger effect = lower value
About 2,000 (36%) of roughly 5,500 compounds were called active. About 18% were inconclusive and are not listed. Some of the results follow.

| compound | normalized growth |
| --- | --- |
| CC(=O)OCC1(C)CCC2(C)CCC3(C)C4=CCc5c(cc(OC(C)=O)c(OC(C)=O)c5C)C4(C)CCC3(C)C2C1 (centres undefined) | 1.01 |
| COC(=O)[C@]1(C)CC[C@]2(C)CC[C@]3(C)C4=CCc5c(cc(O)c(O)c5C)[C@]4(C)CC[C@@]3(C)C2C1 (some centres undefined) | 0.955 |
| Cc1c(O)c(O)cc2c1CC=C1[C@@]2(C)CC[C@@]2(C)C3C[C@](C)(C(=O)O)CC[C@]3(C)CC[C@]12C (some centres undefined) | 0.912 |
| CC(=O)NCCCCCC(=O)O | 0.983 |

====

methodDescription: chemical genetic growth profiling, strain panel (AID 1159580);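 also: tested at 20 µM; growth read once vehicle control cultures reached saturation at 30 °C; 1 = growth at the plate median or of vehicle wells; lower values mean less growth of the strain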
experimentalContext: S. cerevisiae deletion strains, growth OD, locus YNL209W, strain ssb2, stronger effect = lower value
Screen size: about 5,500 compounds; about 2,000 (36%) were called active. Roughly 18% stayed inconclusive and do not appear here. The list shows a part of the results.

| molecule | normalized growth |
| --- | --- |
| CC(C)=CCC[C@](C)(O)C1CC=C(C)CC1 (stereo partly specified) | 0.98 (inactive) |
| CCOP(=S)(OCC)SCn1c(=O)oc2cc(Cl)ccc21 | 0.983 (inactive) |
| C=CC(C)(O)CC/C=C(\C)CCC=C(C)C (stereo unspecified) | 0.977 (inactive) |
| COC(C)(C)CCC[C@H](C)C/C=C/C(C)=C/C(=O)OC(C)C | 0.998 (inactive) |
| C=C(C)[C@H]1CC=C(C(=O)O)CC1 | 0.992 (inactive) |
| O=C1C=CC2=C3c4cc(O)c(O)cc4C[C@@]3(O)COC2=C1 | 0.987 (inactive) |
| O=C(O)c1ccccc1Nc1cccc(C(F)(F)F)c1 | 0.862 (active) |
| CC(=O)NCCCS(=O)(=O)O | 1.01 (inactive) |
| Nc1ccc(S(=O)(=O)Nc2ccc(Cl)nn2)cc1 | 0.999 (inactive) |
| OC[C@@H]1CCCN2CCCC[C@H]12 | 1.02 (inactive) |
| CCCCC1=NC2(CCCC2)C(=O)N1Cc1ccc(-c2ccccc2-c2nn[nH]n2)cc1 | 1.01 (inactive) |
| NCCCC[C@H](N[C@@H](CCc1ccccc1)C(=O)O)C(=O)N1CCC[C@H]1C(=O)O | 1.01 (inactive) |
| CN1C(CC(=O)c2ccccc2)CCCC1CC(O)c1ccccc1 (stereo unspecified) | 0.981 (inactive) |
| CC1(C)C(C(Cl)Cl)C2(Cl)C(Cl)C(Cl)C1(Cl)C2(Cl)Cl (stereo unspecified) | 0.979 (inactive) |
| O[N+]1=CC=CCC1=S.On1ccccc1=S.[Zn] | 0.0623 (active) |
| CC(C)(C)NCC(O)c1ccccc1Cl (stereo unspecified) | 1 (inactive) |
| CO[C@H]1/C=C/O[C@@]2(C)Oc3c(C)c(O)c4c(O)c(c(/C=N/N5CCN(C)CC5)c(O)c4c3C2=O)NC(=O)/C(C)=C\C=C\C(C)[C@H](O)[C@@H](C)[C@@H](O)[C@@H](C)[C@@H](OC(C)=O)[C@@H]1C (stereo partly specified) | 1.02 (inactive) |
| CN[C@H](CC(=O)O)C(=O)O | 1.01 (inactive) |
| O=C(NC(=O)c1c(F)cccc1F)Nc1ccc(Cl)cc1 | 1.02 (inactive) |
| Nc1ncnc2c1ncn2[C@@H]1O[C@H](CO)[C@@H](O)[C@H]1O | 0.988 (inactive) |
| Cc1ccc(/C(=C\CN2CCCC2)c2ccccn2)cc1 | 0.996 (inactive) |
| CCN(CC)CCNC(=O)c1cc(S(C)(=O)=O)ccc1OC | 0.972 (inactive) |
| Cc1ccsc1/C=C/C1=NCCCN1C | 0.984 (inactive) |
| O=C(O)CF | 1.02 (inactive) |
| OC[C@@H](O)[C@@H](O[C@@H]1O[C@H](CO)[C@@H](O)[C@H](O)[C@H]1O)[C@H](O)[C@@H](O)CO | 0.999 (inactive) |
| CO[C@H]1/C=C/O[C@@]2(C)Oc3c(C)c(O)c4c(O)c(c5c(nc6cc(C)ccn65)c4c3C2=O)NC(=O)/C(C)=C\C=C\[C@H](C)[C@H](O)[C@@H](C)C(O)[C@@H](C)[C@H](OC(C)=O)[C@@H]1C (stereo partly specified) | 1.03 (inactive) |
| C[C@H]1[C@H]2CCC3C4CC=C5C[C@@H](N(C)C)CC[C@]5(C)C4CC[C@@]32CN1C (stereo partly specified) | 1 (inactive) |
| O=C1C=CC2=C3c4cc(O)c(O)cc4CC3(O)COC2=C1O (stereo unspecified) | 0.831 (active) |
| Nc1ncnc2c1ncn2C1C[C@H](O)[C@@H](CO)O1 (stereo partly specified) | 1.01 (inactive) |
| CC(=O)NCCCCCC(=O)O | 0.994 (inactive) |
| NC(=NCCC[C@H](N)C(=O)O)NC(CCC(=O)O)C(=O)O (stereo partly specified) | 1 (inactive) |
| O=C(O)CCCCC1CCSS1 (stereo unspecified) | 0.986 (inactive) |
| O=C1CCCC2C3CC(CN12)[C@@H]1CCCCN1C3 (stereo partly specified) | 1 (inactive) |
| CC(C)NCC(O)c1ccc2ccccc2c1 (stereo unspecified) | 1 (inactive) |
| Nc1ncnc2c1ncn2C1O[C@H](COP(=O)(O)O)[C@@H](O)[C@H]1O (stereo partly specified) | 0.998 (inactive) |
| O=c1[nH]c(=O)n(C2C[C@@H](O)[C@@H](CO)O2)cc1F (stereo partly specified) | 0.987 (inactive) |
